Data origin: patent US10906880B2

system: Gibberella zeae; assay: microbe, parasite or virus in culture; format: cell-based; conditions: 50 μg/mL, G. zeae
endpoint: Fungicidal activity inhibition, GZ (%)
Dear colleague, please return just the value in %, with no unit written.

molecule="CNC(=O)/C(=N/OC)c1ccccc1CO/N=C(\\N)c1snc(Cl)c1Cl [CL04-25C]" endpoint="Fungicidal activity inhibition, GZ" endpoint_value=100
molecule="CO/C=C(/C(=O)OC)c1ccccc1Oc1cc(Oc2ccccc2C#N)ncn1 [Azoxystrobin, reference compound]" endpoint="Fungicidal activity inhibition, GZ" endpoint_value=71.43
molecule="CNC(=O)/C(=N/OC)c1ccccc1CO/N=C(\\C)c1snc(Cl)c1Cl [CL04-22D]" endpoint="Fungicidal activity inhibition, GZ" endpoint_value=100

Output measured Fungicidal activity inhibition, GZ for this item: CO/C=C(/C(=O)OC)c1ccccc1CO/N=C(C)/C=C/c1ccc(Cl)cc1 [Enestroburin, reference compound] 21.54

Please report the measured Fungicidal activity inhibition, GZ for C#CCNC(=O)/C(=N/OC)c1ccccc1CO/N=C(\C)c1snc(Cl)c1Cl [CL04-22B] 100

Identify the reported Fungicidal activity inhibition, GZ for the following entry. CNC(=O)/C(=N/OC)c1ccccc1CO/N=C(C)/C=C/c1snc(Cl)c1Cl [CL04-32D] 100

---

# inhibition at 50 µg/mL listing for each entry below
tested on: Sclerotinia sclerotiorum; assay: Fungicide activity, mycelial growth inhibition on PDA plate; type: cell-based; details: Sclerotinia sclerotiorum, 50 μg/mL, S. sclerotiorum; read-out: Fungicidal activity inhibition, SS
# number only, unit % dropped from output

Name the recorded inhibition at 50 µg/mL of CO/C=C(/C(=O)OC)c1ccccc1CO/N=C(\C)c1snc(Cl)c1Cl , assay system Sclerotinia sclerotiorum. 80

# assay system Sclerotinia sclerotiorum: give inhibition at 50 µg/mL of CO/N=C(/C(=O)OC)c1ccccc1CO/N=C(C)/C=C/c1snc(Cl)c1Cl 86.7

Please look at CO/N=C(/C(=O)N[C@@H](C)CSC)c1ccccc1CO/N=C(\N)c1snc(Cl)c1Cl [CL04-25E] and tell me its recorded inhibition at 50 µg/mL on Sclerotinia sclerotiorum. 52.9

Please report inhibition at 50 µg/mL with Sclerotinia sclerotiorum for item CO/N=C(/C(=O)NC(C)(C)CSC)c1ccccc1CO/N=C(C)/C=C/c1snc(Cl)c1Cl [CL04-32E] . 41.2

---

tested on: Botrytis cinerea; experiment: Fungicide activity, mycelial growth inhibition on PDA plate; assay type: cell-based; conditions: Botrytis cinerea, 50 μg/mL, B. cinerea; read-out: Fungicidal activity inhibition, BC
Mark T for reported inhibition at 50 µg/mL of 80% or greater; mark F for anything smaller.

Record excerpt, results attached:
molecule="CNC(=O)/C(=N/OC)c1ccccc1CO/N=C(\\N)c1snc(Cl)c1Cl [CL04-25C]" target="Botrytis cinerea" answer_label=F
molecule="CO/N=C(/C(=O)NC(C)(C)CSC)c1ccccc1CO/N=C(\\C)c1snc(Cl)c1Cl [CL04-22E]" target="Botrytis cinerea" answer_label=F
molecule="CO/N=C(/C(=O)NCC(F)F)c1ccccc1CO/N=C(C)/C=C/c1snc(Cl)c1Cl [CL04-32A]" target="Botrytis cinerea" answer_label=F
molecule="CO/N=C(/C(=O)OC)c1ccccc1CO/N=C/c1snc(Cl)c1Cl [CL04-15B]" target="Botrytis cinerea" answer_label=T
molecule="CO/N=C(/C(=O)NC(C)(C)CSC)c1ccccc1CO/N=C(C)/C=C/c1snc(Cl)c1Cl [CL04-32E]" target="Botrytis cinerea" answer_label=F

Form field: inhibition at 50 µg/mL at least 80%? Entry: CO/C=C(/C(=O)OC)c1ccccc1CO/N=C(\N)c1snc(Cl)c1Cl T

Does the molecule CO/N=C(/C(=O)NCC(F)F)c1ccccc1CO/N=C(\C)c1snc(Cl)c1Cl [CL04-22A] have recorded inhibition at 50 µg/mL that is 80% or more? F

Evaluate CO/C=C(/C(=O)OC)c1ccccc1CO/N=C(\C)CC(O)c1snc(Cl)c1Cl (stereo not drawn) : inhibition at 50 µg/mL at minimum 80%? T

Test whether the molecule CO/N=C(/C(=O)N[C@@H](C)CSC)c1ccccc1CO/N=C(\C)c1snc(Cl)c1Cl [CL04-22F] records inhibition at 50 µg/mL of 80% or higher. F

Hi team, for C#CCNC(=O)/C(=N/OC)c1ccccc1CO/N=C(C)/C=C/c1snc(Cl)c1Cl [CL04-32B] , is the recorded inhibition at 50 µg/mL at or above 80%? F

Could you verify whether the entry CNC(=O)/C(=N/OC)c1ccccc1CO/N=C(C)/C=C/c1snc(Cl)c1Cl [CL04-32D] shows inhibition at 50 µg/mL of no less than 80%? T

Does CO/C=C(/C(=O)OC)c1ccccc1CO/N=C(\C)CC(=O)c1snc(Cl)c1Cl have a reported inhibition at 50 µg/mL of at least 80%? F

Exam item: decide whether the reported inhibition at 50 µg/mL for C#CCNC(=O)/C(=N/OC)c1ccccc1CO/N=C(\N)c1snc(Cl)c1Cl [CL04-25A] is at least 80%. F

// inclusive: inhibition at 50 µg/mL at least 80%? input: CO/N=C(/C(=O)OC)c1ccccc1CO/N=C(C)/C=C/c1snc(Cl)c1Cl T

Hi team, for CO/N=C(/C(=O)OC)c1ccccc1CO/N=C(\C)c1snc(Cl)c1Cl [CL04-15A] , is the recorded inhibition at 50 µg/mL at or above 80%? T

---

test system: Botrytis cinerea; test: Fungicide activity, mycelial growth inhibition on PDA plate; format: cell-based; conditions: Botrytis cinerea, 50 μg/mL, B. cinerea; read-out: Fungicidal activity inhibition, BC
endpoint: inhibition at 50 µg/mL (%)
Write it as a number; the unit % goes unstated.

Sample records with inhibition at 50 µg/mL:
molecule="CNC(=O)/C(=N/OC)c1ccccc1CO/N=C(\\C)c1snc(Cl)c1Cl [CL04-22D]" endpoint_value=100
molecule="CO/N=C(/C(=O)NC1CC1)c1ccccc1CO/N=C(\\N)c1snc(Cl)c1Cl [CL04-25B]" endpoint_value=36.8
molecule=CO/C=C(/C(=O)OC)c1ccccc1CO/N=C/c1snc(Cl)c1Cl endpoint_value=100
molecule=CO/C=C(/C(=O)OC)c1ccccc1CO/N=C(C)/C=C/c1snc(Cl)c1Cl endpoint_value=100
molecule=CO/N=C(/C(=O)NCC(F)F)c1ccccc1CO/N=C(\N)c1snc(Cl)c1Cl endpoint_value=37.5
molecule="C#CCNC(=O)/C(=N/OC)c1ccccc1CO/N=C(\\C)c1snc(Cl)c1Cl [CL04-22B]" endpoint_value=51.9
molecule=CO/C=C(/C(=O)OC)c1ccccc1CO/N=C(\C)c1snc(Cl)c1Cl endpoint_value=100
molecule="CO/N=C(/C(=O)NC1CC1)c1ccccc1CO/N=C(\\C)c1snc(Cl)c1Cl [CL04-22C]" endpoint_value=47.4

State, in one line, measured inhibition at 50 µg/mL of CO/N=C(/C(=O)N[C@H](C)CSC)c1ccccc1CO/N=C(C)/C=C/c1snc(Cl)c1Cl [CL04-32F] 42.9

Look up and state reported inhibition at 50 µg/mL for CO/N=C(/C(=O)N[C@@H](C)CSC)c1ccccc1CO/N=C(\N)c1snc(Cl)c1Cl [CL04-25E] 35.7

---

system: TMV; assay: Anti-TMV activity on tobacco, curative mode; assay type: in vivo, tobacco mosaic virus; conditions: Tobacco mosaic virus, 100 μg/mL, tobacco; read-out: Anti-TMV activity inhibition, Curative effect
endpoint: inhibition at 100 µg/mL (%)
Numbers only here, please. The scale is %.

compound="CNC(=O)/C(=N/OC)c1ccccc1CO/N=C(\\N)c1snc(Cl)c1Cl [CL04-25C]" endpoint_value=14.7
compound="CO/N=C(/C(=O)NC1CC1)c1ccccc1CO/N=C(\\C)c1snc(Cl)c1Cl [CL04-22C]" endpoint_value=4.62
compound="CNC(=O)/C(=N/OC)c1ccccc1CO/N=C(C)/C=C/c1snc(Cl)c1Cl [CL04-32D]" endpoint_value=1.52
compound="C#CCNC(=O)/C(=N/OC)c1ccccc1CO/N=C(\\C)c1snc(Cl)c1Cl [CL04-22B]" endpoint_value=1.52

Look up and report measured inhibition at 100 µg/mL for this entry: CO/N=C(/C(=O)NC1CC1)c1ccccc1CO/N=C(C)/C=C/c1snc(Cl)c1Cl [CL04-32C] 31.6

Write down inhibition at 100 µg/mL measured for item CNC(=O)/C(=N/OC)c1ccccc1CO/N=C(\C)c1snc(Cl)c1Cl [CL04-22D] 32.8

Specify reported inhibition at 100 µg/mL for the compound shown: CO/C=C(/C(=O)OC)c1ccccc1CO/N=C(\C)CC(O)c1snc(Cl)c1Cl (stereo not drawn) 19.1

Report measured inhibition at 100 µg/mL; entry is CNC(=O)/C(=N/OC)c1cc(C)c(C)cc1CO/N=C(\C)c1cc(Cl)ns1 [CL04-00, reference compound] 27.3

Check the records and state inhibition at 100 µg/mL for CO/N=C(/C(=O)OC)c1ccccc1CO/N=C(\N)c1snc(Cl)c1Cl [CL04-15C] 1.52

Please look at this compound and report its inhibition at 100 µg/mL: CO/N=C(/C(=O)N[C@@H](C)CSC)c1ccccc1CO/N=C(\C)c1snc(Cl)c1Cl [CL04-22F] 1.52

State its inhibition at 100 µg/mL: CO/N=C(/C(=O)NC(C)(C)CSC)c1ccccc1CO/N=C(\C)c1snc(Cl)c1Cl [CL04-22E] 20.2

Write down inhibition at 100 µg/mL measured for item CO/N=C(/C(=O)OC)c1ccccc1CO/N=C(\C)c1snc(Cl)c1Cl [CL04-15A] 1.52

// fetch inhibition at 100 µg/mL given entry CO/N=C(/C(=O)OC)c1ccccc1CO/N=C/c1snc(Cl)c1Cl [CL04-15B] 27

Give me measured inhibition at 100 µg/mL, please, for this compound: CO/N=C(/C(=O)NCC(F)F)c1ccccc1CO/N=C(\C)c1snc(Cl)c1Cl [CL04-22A] 23.4
